Measured values drawn from the NIST ThermoML archive (doi:10.1021/je800218g) for this set.

assay: activity coefficient (dimensionless); of the first substance listed, at infinite dilution; xn = mol fraction of the nth substance listed; settings: 323.15 K; Liquid; Chromatography; x1 = 0
So I've got a bunch of molecules here, and I need their activity coefficient values.

Prompt: Give the measured activity coefficient for Cc1ccccc1 [toluene] + CCn1cc[n+](C)c1.F[B-](F)(F)F
Response: 3.62

Prompt: Dear colleague, please send me the reported activity coefficient for c1ccccc1 [benzene] + CCn1cc[n+](C)c1.F[B-](F)(F)F when you can.
Response: 2.09

Prompt: Indicate its recorded activity coefficient; the molecule in question is CC(C)CC(C)(C)C [2,2,4-trimethylpentane] + CCn1cc[n+](C)c1.F[B-](F)(F)F
Response: 124

Prompt: Please indicate activity coefficient recorded for CC1CCCCC1 [methylcyclohexane] + CCn1cc[n+](C)c1.F[B-](F)(F)F
Response: 67.7

Prompt: Indicate its recorded activity coefficient; the molecule in question is ClC(Cl)Cl [trichloromethane] + CCn1cc[n+](C)c1.F[B-](F)(F)F
Response: 1.39

Prompt: Recall and state the measured activity coefficient for C1=CCCCC1 [cyclohexene] + CCn1cc[n+](C)c1.F[B-](F)(F)F .
Response: 16.6

Prompt: Specify reported activity coefficient for the molecule shown: CCCCCCC [heptane] + CCn1cc[n+](C)c1.F[B-](F)(F)F
Response: 124

Prompt: Give recorded activity coefficient. CCCCCCCC [octane] + CCn1cc[n+](C)c1.F[B-](F)(F)F
Response: 187

Prompt: Read the entry ClCCl [dichloromethane] + CCn1cc[n+](C)c1.F[B-](F)(F)F and write its reported activity coefficient.
Response: 1.21

Prompt: Look up and report measured activity coefficient for this entry: CCOC(C)=O [ethyl acetate] + CCn1cc[n+](C)c1.F[B-](F)(F)F
Response: 2.89

Prompt: Supply reported activity coefficient belonging to this molecule: Cc1ccccc1C [1,2-dimethylbenzene] + CCn1cc[n+](C)c1.F[B-](F)(F)F
Response: 4.64

Prompt: Return activity coefficient for the following molecule: CCCCC [pentane] + CCn1cc[n+](C)c1.F[B-](F)(F)F
Response: 57.6

Prompt: Indicate the recorded activity coefficient value for this molecule: ClC(Cl)(Cl)Cl [tetrachloromethane] + CCn1cc[n+](C)c1.F[B-](F)(F)F
Response: 4.56

Prompt: Annotate the molecule CCCCCC [hexane] + CCn1cc[n+](C)c1.F[B-](F)(F)F with its measured activity coefficient.
Response: 90.6

Prompt: Find the measured activity coefficient of CCCCCCCCC [nonane] + CCn1cc[n+](C)c1.F[B-](F)(F)F and report it.
Response: 272

Prompt: Specify activity coefficient for Cc1ccc(C)cc1 [1,4-dimethylbenzene] + CCn1cc[n+](C)c1.F[B-](F)(F)F and stop.
Response: 5.14

Prompt: Report activity coefficient for CC#N [acetonitrile] + CCn1cc[n+](C)c1.F[B-](F)(F)F
Response: 0.853

Prompt: Entry CCc1ccccc1 [ethylbenzene] + CCn1cc[n+](C)c1.F[B-](F)(F)F needs its activity coefficient filled in; supply it.
Response: 6.11

Prompt: Could you please provide reported activity coefficient for CC(C)=O [acetone] + CCn1cc[n+](C)c1.F[B-](F)(F)F ? Thanks!
Response: 1.27
